B1: UFD1L (parent)
chain: EAGGRFVAFSGEGQSLRKKGRKP

# Variants of: B1
# testDescription: protein stability index of a GFP-peptide fusion (GPS, HEK-293T) (PSI 1-6); higher = more stable;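 note: lentivirally expressed fusions sorted by FACS into six bins by GFP to DsRed ratio, PSI derived from sequencing read proportions per bin multiplied by bin number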
# protocolConditions: c terminus: native
Use T when the recorded protein stability index is no lower than 2; use F when it is lower.

See these solved cases before continuing.
    var  assignedcategory
0  R17H                 T
1  S10N                 T
2   R5F                 T
3   E1C                 T
4  G20N                 F

# check: protein stability index of `K18F` is greater than or equal to 2
T

Determine whether measured protein stability index meets or exceeds 2 for `F9W`
T

Is protein stability index at least 2? Consider `K18V`
F

In plain terms: is recorded protein stability index at least 2 for `F9A` ?
T
